target: human IL-6 (human, UniProt P05231 30-212); test: SPR (Biacore), supernatant antibody on Protein A chip, IL-6 flowed, 37 C
Sequence (P05231 30-212 limits assumed): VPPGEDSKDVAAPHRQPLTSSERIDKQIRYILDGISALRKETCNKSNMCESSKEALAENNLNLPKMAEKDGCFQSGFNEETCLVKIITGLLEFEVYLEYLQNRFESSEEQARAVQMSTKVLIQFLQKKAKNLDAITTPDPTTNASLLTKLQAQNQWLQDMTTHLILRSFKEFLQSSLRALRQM
The entries below come with measured koff values attached.

{"BINDER": "anti-IL-6 antibody, heavy chain I51Y, G66D / light chain M32L, M50D, N52S, M88Q (antibody, human IgG1, V domains shown, Human IgG1) VH: EVQLVESGGGLVQPGGSLRLSCAASGFTFSPFAMSWVRQAPGKGLEWVAKYSPGGSWTYYSDTVTDRFTFSLDTSKSTAYLQMNSLRAEDTAVYYCARQLWGYYALDIWGQGTLVTVSS VL: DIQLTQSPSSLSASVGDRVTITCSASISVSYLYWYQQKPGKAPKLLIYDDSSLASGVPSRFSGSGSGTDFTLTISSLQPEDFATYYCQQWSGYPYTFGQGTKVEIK", "VALUE UNIT": "s⁻¹", "koff": 0.0247}
{"BINDER": "anti-IL-6 antibody, heavy chain I51R, G66D / light chain M32L, M50D, N52S, M88Q (antibody, human IgG1, V domains shown, Human IgG1) VH: EVQLVESGGGLVQPGGSLRLSCAASGFTFSPFAMSWVRQAPGKGLEWVAKRSPGGSWTYYSDTVTDRFTFSLDTSKSTAYLQMNSLRAEDTAVYYCARQLWGYYALDIWGQGTLVTVSS VL: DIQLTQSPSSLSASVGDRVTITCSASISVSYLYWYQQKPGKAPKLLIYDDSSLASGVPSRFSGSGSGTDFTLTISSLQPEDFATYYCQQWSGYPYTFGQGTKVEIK", "VALUE UNIT": "s⁻¹", "koff": "5.8e-05"}
